Test system: Mycoplasmoides pneumoniae
test_name: Antimicrobial activity against Mycoplasma pneumoniae by agar dilution method
Assay type: functional
measured_metric: MIC50 (µg/mL)
Just the number in µg/mL, nothing appended.

Requested read-out MIC50, target or system Mycoplasmoides pneumoniae, entry COc1c(N2C[C@@H]3CCCN[C@@H]3C2)c(F)cc2c(=O)c(C(=O)O)cn(C3CC3)c12
0.06

Requested read-out MIC50, target or system Mycoplasmoides pneumoniae, entry O=C(O)c1cn(C2CC2)c2cc(N3CCNCC3)c(F)cc2c1=O
4

Requested read-out MIC50, target or system Mycoplasmoides pneumoniae, entry CO/N=C1\CN(c2nc3c(cc2F)c(=O)c(C(=O)O)cn3C2CC2)CC1CN (stereo unspecified)
0.032

Continuing:
Requested read-out MIC50, target or system Mycoplasmoides pneumoniae, entry CC[C@H]1OC(=O)[C@H](C)[C@@H](O[C@H]2C[C@@](C)(OC)[C@@H](O)[C@H](C)O2)[C@H](C)[C@@H](O[C@@H]2O[C@H](C)C[C@H](N(C)C)[C@H]2O)[C@](C)(O)C[C@@H](C)CN(C)[C@H](C)[C@@H](O)[C@]1(C)O
0.001

Requested read-out MIC50, target or system Mycoplasmoides pneumoniae, entry CN1C(=O)C2CC3C4Nc5ccc(Cl)cc5C(C)(C)C4CN3C2N(C)C1=O (stereo unspecified)
0.001

Requested read-out MIC50, target or system Mycoplasmoides pneumoniae, entry C[C@H]1c2cccc(O)c2C(=O)C2=C(O)[C@]3(O)C(=O)C(C(N)=O)=C(O)[C@@H](N(C)C)[C@@H]3[C@@H](O)[C@@H]21.O
0.25

* * *

Test system: Mycoplasmoides pneumoniae
test_name: Antimicrobial activity against Mycoplasma pneumoniae by agar dilution method
Assay type: functional
# key: entry, value: MIC50
Just the number in µg/mL, nothing appended.

Example cases with answers are listed next.
Which MIC50 value belongs to C[C@H]1COc2c(N3CCN(C)CC3)c(F)cc3c(=O)c(C(=O)O)cn1c23.C[C@H]1COc2c(N3CCN(C)CC3)c(F)cc3c(=O)c(C(=O)O)cn1c23.O ?
1

Which MIC50 value belongs to CN(C)[C@@H]1C(O)=C(C(N)=O)C(=O)[C@@]2(O)C(O)=C3C(=O)c4c(O)cccc4[C@@](C)(O)[C@H]3C[C@@H]12 ?
1

Continuing:
Which MIC50 value belongs to COc1c(N2CCNC(C)C2)c(F)cc2c(=O)c(C(=O)O)cn(C3CC3)c12 (stereo not drawn) ?
0.125

* * *

Tested on: Mycoplasmoides pneumoniae
test_name: Antimicrobial activity against Mycoplasma pneumoniae by agar dilution method
Format: functional
# key: entry, value: MIC

Which MIC value belongs to CC[C@H]1OC(=O)[C@H](C)[C@@H](O[C@H]2C[C@@](C)(OC)[C@@H](O)[C@H](C)O2)[C@H](C)[C@@H](O[C@@H]2O[C@H](C)C[C@H](N(C)C)[C@H]2O)[C@](C)(O)C[C@@H](C)CN(C)[C@H](C)[C@@H](O)[C@]1(C)O ?
1 ng/mL

Which MIC value belongs to CN1C(=O)C2CC3C4Nc5ccc(Cl)cc5C(C)(C)C4CN3C2N(C)C1=O (centres undefined) ?
1 ng/mL

Which MIC value belongs to C[C@H]1COc2c(N3CCN(C)CC3)c(F)cc3c(=O)c(C(=O)O)cn1c23.C[C@H]1COc2c(N3CCN(C)CC3)c(F)cc3c(=O)c(C(=O)O)cn1c23.O ?
12 ng/mL

We now examine a further compound.
Which MIC value belongs to COc1c(N2C[C@@H]3CCCN[C@@H]3C2)c(F)cc2c(=O)c(C(=O)O)cn(C3CC3)c12 ?
60 ng/mL
